assay_overview: Toxin crossing and apparent permeability across Caco-2 cell monolayers (A to B), LC-MS/MS
Format: in vitro ADME, human
test_parameters: human, Caco-2; 2 h, loaded 16 ng/mL, A to B
Classification field: enter T for Papp at 2 h, 16 ng/mL values not below 6 ×10⁻⁶ cm/s, F for values below it.

- compound: "C=CC1=CC2C3OC4(CC(C)CC3O4)CC3OC4(CCC5(OC(CCC5(C)O)CC(=C)CCCC5=NCC(C)C(C)CC52CC1)O4)CC(C)C3O (stereo not drawn)"
  label_value: "T"
- compound: "C=CC1=CC2C3O[C@]4(CCC(O4)[C@@H](C)C[C@@H](O)C3=O)C[C@H](O)C3=NCC[C@@]32CC1 (stereo partly drawn)"
  label_value: "T"
- compound: "C=CC1=CC2C3OC4(CC5CCCC6(CCC7(OC(CCC7(C)O)CC(=C)CCCC7=NCC(C)C(C)CC72CC1)O6)O5)CC(C)C(O)C3O4 (stereo not drawn)"
  label_value: "T"
- compound: "C=C1CCCC2=NCC(C)C(C)CC23CCC(C(=O)O)=CC3C2OC3(CC4CCCC5(CCC6(OC(CCC6(C)O)C1)O5)O4)CC(C)C(O)C2O3 (stereo not drawn)"
  label_value: "F"
- compound: "C=C1CCCC2=NCC(C)C(C)CC23CCC(C2CCC(=O)O2)=CC3C2OC3(CC(C)CC2O3)CC2OC3(CCC4(OC(CCC4(C)O)C1)O3)CC(C)C2O (stereo not drawn)"
  label_value: "T"
- compound: "C=C1CCCC2=NCC(C)C(C)CC23CCC(C(O)CCC(=O)O)=CC3C2OC3(CC(C)CC2O3)CC2OC3(CCC4(OC(CCC4(C)O)C1)O3)CC(C)C2O (stereo not drawn)"
  label_value: "F"
